- TARGET DESC: Recombinant Human NF-kappaB-Inducing Kinase (NIK/MAP3K14) (Homo sapiens)
- RUN DESCRIPTION: Biological Assay A2: inhibition of auto-phosphorylation of recombinant human NIK/MAP3K14 (AlphaScreen)
- Format: biochemical
- CONDITION INFO: auto-phosphorylation; averaged over all measurements on all batches; read-out: αscreen IC50
Items are presented alongside their recorded IC50.
# value in nM; strip the unit string

Study these solved cases before continuing.
> print(dat)
                                   compound  measured.parameter  meas.value
1  CC(C)(O)C#Cc1cc2c(-c3ccnc(N)n3)cn(C3CNC3)c2cn1 [Compound 113]                IC50          38
2  CC(C)(O)Cn1cc(-c2ccnc(N)n2)c2cc(C#CCO)ncc21 [Compound 62]                IC50         680
3  Cn1cc(-c2ccnc(N)n2)c2cc(C#CC(C)(C)O)ncc21 [Compound 5]                IC50           8
4  CC(O)(C#Cc1cc2c(-c3nc(N)ncc3F)cn(C3CCN(CCF)CC3)c2cn1)C1CC1 (stereo not drawn) [Compound 163]                IC50          73
5  CC(O)(C#Cc1cc2c(-c3ccnc(N)n3)cn(C3CCN(C4CC4)CC3)c2cn1)C1CC1 (stereo not drawn) [Compound 164]                IC50          89

Prompt: Need IC50 of CC(O)(C#Cc1cc2c(-c3nc(N)ncc3F)cn(C3CCN(CC4CC4)CC3)c2cn1)C1CC1 (stereo not drawn) [Compound 165] , thanks.
Response: 46

Prompt: Would you mind telling me what IC50 value was observed for CC(C)(O)Cn1cc(-c2ccnc(N)n2)c2cc(C#CC3(O)CC3)ncc21 [Compound 22] ?
Response: 9

----------
- Test system: L-363 cells
- RUN DESCRIPTION: Biological Assay C: antiproliferative activity on L-363 cells (CellTiter-Glo)
- Assay type: cell-based, human
- CONDITION INFO: Homo sapiens, L-363, 72 h, 72 hr treatment; averaged values
- Protocol: Determination of Antiproliferative Activity on LP-1, L-363 and JJN-3 Cells All compounds tested were dissolved in DMSO and further dilutions were made in culture medium. Final DMSO concentration was 0.3% (v/v) in cell proliferation assays. Viability was assessed using CellTiter-Glo cell viability assay kit (Promega). […] Luminescence was measured on a HTS Topcount (Perkin Elmer). […]
pEC50: −log10 of the molar value.
Short version: pEC50 at least 6 is Y, less is N.

Solved cases below.
> print(dat)
                                   molecule  group
1  CC(O)(C#Cc1cc2c(-c3nc(N)ncc3F)cn(C3CCN(CCF)C3)c2cn1)C1CC1 (centres unmarked) [Compound 153]      Y
2  CC(C)(O)C#Cc1cc2c(-c3ccnc(N)n3)cn(CCC(C)(C)O)c2cn1 [Compound 51]      N
3  CC(C)(O)C#Cc1cc2c(-c3nc(N)ncc3F)cn(C3CCN(CCF)C3)c2cn1 (centres unmarked) [Compound 151]      Y
4  CC(O)(C#Cc1cc2c(-c3nc(N)ncc3F)cn(C3CN(CC(F)(F)F)C3)c2cn1)C1CC1 (centres unmarked) [Compound 145]      Y
5  COc1cnc(N)nc1-c1cn(C(C)C)c2cnc(C#CC(C)(O)C3CC3)cc12 (centres unmarked) [Compound 149]      Y

Prompt: Decide: is the reported value of pEC50 for CC(C)(O)Cn1cc(-c2ccnc(N)n2)c2cc(C#CC3(O)CC3)ncc21 [Compound 22] equal to or greater than 6?
Response: Y

Prompt: Has COCCNC(=O)c1[nH]c2cnc(C#CC(C)(C)O)cc2c1-c1ccnc(N)n1 [Compound 52] a recorded pEC50 greater than or equal to 6?
Response: N

Prompt: # bool: pEC50 of COCCCn1cc(-c2nc(N)ncc2F)c2cc(C#CC(C)(O)c3cc(C)on3)ncc21 (centres unmarked) [Compound 91] >= 6
Response: Y

----------
- TARGET DESC: Recombinant Human NF-kappaB-Inducing Kinase (NIK/MAP3K14) (Homo sapiens, UniProt Q99558)
- Sequence (Q99558 whole entry): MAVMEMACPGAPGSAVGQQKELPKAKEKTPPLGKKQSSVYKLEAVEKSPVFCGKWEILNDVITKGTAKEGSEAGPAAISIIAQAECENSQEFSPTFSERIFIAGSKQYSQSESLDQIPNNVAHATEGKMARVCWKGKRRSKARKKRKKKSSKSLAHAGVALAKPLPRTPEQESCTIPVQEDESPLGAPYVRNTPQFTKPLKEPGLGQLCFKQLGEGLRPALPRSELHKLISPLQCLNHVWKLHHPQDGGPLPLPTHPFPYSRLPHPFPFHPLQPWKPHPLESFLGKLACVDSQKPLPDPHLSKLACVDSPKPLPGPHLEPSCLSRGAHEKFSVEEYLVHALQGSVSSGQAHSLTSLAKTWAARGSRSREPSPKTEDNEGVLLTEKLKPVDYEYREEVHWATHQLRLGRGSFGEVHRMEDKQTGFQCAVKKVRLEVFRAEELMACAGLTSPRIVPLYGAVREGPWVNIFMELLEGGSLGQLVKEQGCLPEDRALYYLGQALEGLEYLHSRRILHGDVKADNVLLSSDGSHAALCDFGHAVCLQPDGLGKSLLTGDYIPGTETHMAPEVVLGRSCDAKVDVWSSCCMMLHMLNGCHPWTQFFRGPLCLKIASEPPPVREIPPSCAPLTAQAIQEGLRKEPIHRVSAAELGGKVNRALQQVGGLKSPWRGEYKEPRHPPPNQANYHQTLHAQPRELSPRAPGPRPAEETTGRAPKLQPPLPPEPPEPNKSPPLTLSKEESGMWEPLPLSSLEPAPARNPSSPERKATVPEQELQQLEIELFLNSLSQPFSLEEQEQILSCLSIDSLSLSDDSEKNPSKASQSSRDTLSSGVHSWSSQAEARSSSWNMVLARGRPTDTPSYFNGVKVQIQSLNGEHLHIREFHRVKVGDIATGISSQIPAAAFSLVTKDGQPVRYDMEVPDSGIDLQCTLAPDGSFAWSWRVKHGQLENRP
- RUN DESCRIPTION: Biological Assay A: inhibition of recombinant human NIK/MAP3K14 activity (MBP phosphorylation, Mesoscale)
- Type: biochemical
- CONDITION INFO: averaged over all measurements on all batches; read-out: Biochemical (MSD MBP) IC50
Below, each of the molecules is paired with its reported IC50 value.
Numbers only here, please. The scale is nM.

> print(dat)
                                   molecule  meas.value
1  CC(C)(O)C#Cc1cc2c(-c3nc(N)ncc3C(F)(F)F)cn(CC3CCOCC3)c2cn1          26
2  CC(C)(O)Cn1cc(-c2ccnc(N)n2)c2cc(C#CC3(O)CC3)ncc21          20
3  CCNc1nccc(-c2c[nH]c3cnc(C#CC(C)(C)O)cc23)n1          65
4  CC(C)(O)Cn1cc(-c2ccnc(N)n2)c2cc(C#CC3(O)CCCCC3)ncc21          21
5  COCCn1cc(-c2nc(N)ncc2Cl)c2cc(C#CC(C)(O)c3nccs3)ncc21 (stereo not shown)         9.4

Prompt: For the molecule CC(C)(O)C#Cc1cc2c(-c3nc(N)ncc3F)cn(CC3CCOCC3)c2cn1 , what IC50 is on record?
Response: 56

Prompt: Quick one: IC50 of CC(C)(O)Cn1cc(-c2nc(N)ncc2Cl)c2cc(C#CC(C)(O)c3nccs3)ncc21 (stereo not shown) ?
Response: 30

Prompt: Requested field: IC50. Item: CC(C)(O)C#Cc1cc2c(-c3ccnc(N)n3)cn(CC3CCOCC3)c2cn1
Response: 84

Prompt: What value of IC50 has been recorded for this entry: CC(C)(O)Cn1cc(-c2ccnc(N)n2)c2cc(C#CC(C)(O)c3nccs3)ncc21 (stereo not shown)
Response: 25

Prompt: Record request: IC50 value, item CC(C)(O)C#Cc1cc2c(-c3nc(N)ncc3Cl)cn(CCO)c2cn1
Response: 3.3

Prompt: Bench note: what IC50 did CCC(O)(C#Cc1cc2c(-c3ccnc(N)n3)cn(CCOC)c2cn1)CC show?
Response: 120

Prompt: # lookup: IC50 of CC(C)(O)Cn1cc(-c2ccnc(N)n2)c2cc(C#CC(C)(O)C3CCC3)ncc21 (stereo not shown)
Response: 45

Prompt: Value lookup for IC50; key = CC(C)(O)Cn1cc(-c2ccnc(N)n2)c2cc(C#CC(C)(O)c3ccccc3)ncc21 (stereo not shown)
Response: 17

----------
Entries annotated with measured log10 of IC50
- TARGET DESC: Recombinant Human NF-kappaB-Inducing Kinase (NIK/MAP3K14) (Homo sapiens, UniProt Q99558)
- RUN DESCRIPTION: Biological Assay A2: inhibition of auto-phosphorylation of recombinant human NIK/MAP3K14 (AlphaScreen)
- Type: biochemical
- CONDITION INFO: auto-phosphorylation; averaged over all measurements on all batches; read-out: αscreen IC50
Hi team, quick reminder: these entries are log10 of IC50 (nM).

Examples with their reported log10 of IC50 follow.
> print(dat)
                                   compound                               target.desc  measured.parameter  meas.value
1  Nc1ncc(F)c(-c2cn(C3COC3)c3c(C4CC4)nc(C#CC4(O)CCCC4)cc23)n1  Recombinant Human NF-kappaB-Inducing Kinase (NIK/MAP3K14) (Homo sapiens, UniProt Q99558)       log10 of IC50        1.49
2  CC(C)(O)C#Cc1cc2c(-c3nc(N)ncc3C#N)cn(CC3CCOCC3)c2cn1  Recombinant Human NF-kappaB-Inducing Kinase (NIK/MAP3K14) (Homo sapiens, UniProt Q99558)       log10 of IC50        1.54
3  Cn1cc(Cn2cc(-c3nc(N)ncc3F)c3cc(C#CC(C)(O)C4CC4)ncc32)cn1 (stereo not drawn)  Recombinant Human NF-kappaB-Inducing Kinase (NIK/MAP3K14) (Homo sapiens, UniProt Q99558)       log10 of IC50        2.08
4  CC(C)(O)C#Cc1cc2c(-c3nc(N)ncc3F)cn(C3COC3)c2cn1  Recombinant Human NF-kappaB-Inducing Kinase (NIK/MAP3K14) (Homo sapiens, UniProt Q99558)       log10 of IC50        1.63
5  COCCCn1cc(-c2nc(N)ncc2F)c2cc(C#CC(C)(O)C3CC3)ncc21 (single isomer, unassigned) [Compound 119]  Recombinant Human NF-kappaB-Inducing Kinase (NIK/MAP3K14) (Homo sapiens, UniProt Q99558)       log10 of IC50        2.36
6  CN(C)C(=O)Cn1cc(-c2ccnc(N)n2)c2cc(C#CC(C)(C)O)ncc21  Recombinant Human NF-kappaB-Inducing Kinase (NIK/MAP3K14) (Homo sapiens, UniProt Q99558)       log10 of IC50        2.97

Prompt: Request - read-out log10 of IC50 | tested on Recombinant Human NF-kappaB-Inducing Kinase (NIK/MAP3K14) (Homo sapiens, UniProt Q99558) | compound COCCn1cc(-c2nc(N)ncc2Cl)c2cc(C#CC(C)(O)c3nccs3)ncc21 (stereo not drawn)
Response: 1.18

Prompt: So what log10 of IC50 did COCCCn1cc(-c2nc(N)ncc2C)c2cc(C#CC(C)(C)O)ncc21 get with Recombinant Human NF-kappaB-Inducing Kinase (NIK/MAP3K14) (Homo sapiens, UniProt Q99558)?
Response: 1.93

Prompt: Could you share what log10 of IC50 was measured for CC(O)(C#Cc1cc2c(-c3nc(N)ncc3F)cn(C3CCN(CCC(F)(F)F)C3)c2cn1)C1CC1 (stereo not drawn) , tested on Recombinant Human NF-kappaB-Inducing Kinase (NIK/MAP3K14) (Homo sapiens, UniProt Q99558)?
Response: 1.67

Prompt: Query the reported log10 of IC50 for Recombinant Human NF-kappaB-Inducing Kinase (NIK/MAP3K14) (Homo sapiens, UniProt Q99558); item: CC(=O)N1CC(n2cc(-c3nc(N)ncc3F)c3cc(C#CC(C)(O)C4CC4)ncc32)C1 (stereo not drawn)
Response: 2.28

Prompt: Find log10 of IC50 (Recombinant Human NF-kappaB-Inducing Kinase (NIK/MAP3K14) (Homo sapiens, UniProt Q99558)) for the entry CC(O)(C#Cc1cc2c(-c3nc(N)ncc3F)cn(C3CN(C4CC4)C3)c2cn1)C1CC1 (single isomer, unassigned) [Compound 157]
Response: 1.66
